target-entity: T1, human CCK-B receptor (human, UniProt P32239 1-447)
T1 sequence (looked up): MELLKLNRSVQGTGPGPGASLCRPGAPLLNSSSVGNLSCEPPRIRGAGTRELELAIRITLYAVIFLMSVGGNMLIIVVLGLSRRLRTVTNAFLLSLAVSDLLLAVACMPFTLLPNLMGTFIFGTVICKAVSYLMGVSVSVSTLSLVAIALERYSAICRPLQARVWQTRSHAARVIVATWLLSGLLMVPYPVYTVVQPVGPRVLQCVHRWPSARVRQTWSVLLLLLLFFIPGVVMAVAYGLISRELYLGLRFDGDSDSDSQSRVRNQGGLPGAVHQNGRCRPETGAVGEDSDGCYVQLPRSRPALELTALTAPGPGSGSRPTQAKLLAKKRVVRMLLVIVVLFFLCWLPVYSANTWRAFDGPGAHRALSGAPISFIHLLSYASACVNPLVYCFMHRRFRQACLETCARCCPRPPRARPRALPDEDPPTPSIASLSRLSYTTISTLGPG
assay-notes: cell-based or functional assay
Ends that are not written are not given here.
endpoint-name: hCCK-B R EC50 (p-ERK) (nM)
Your answer is read as nM, so omit the unit and give the number.

q: Data request, read-out hCCK-B R EC50 (p-ERK), for HGEGTFTSDLSKQMEEEAVRLFIEWLKNYGWLDF (C-terminal amide) [Exendin-4(1-28)-[Leu4]Gastrin6]
a: 14

q: Data request, read-out hCCK-B R EC50 (p-ERK), for HGEGTFTSELSKYLEEEAVRLFIEFLKWLDF-NH2 [[Glu9,Leu14,Phe25,Tyr13]Exendin-4(1-27)-[Leu2]Gastrin4]
a: 211

q: Data request, read-out hCCK-B R EC50 (p-ERK), for HGEGTFTSDLSKQMEEEAVRLFIEWLKEEEEAYGWLDF (C-terminal amide) [Exendin-4(1-27)-[Leu4]Gastrin11]
a: 4.3
